Assignment: determine reported optical density for the given binders.
biological target: T1, Goat anti-Human Kappa; test: ELISA; positive control; also: test concentration or dose not given here
T1 construct: Positive control; also called biotinylated goat anti-human kappa light chain
A bare number is not enough; add the unit after it.

// sample 368_D02 (antibody, V domains shown, VH/VL only) VH: EVQLLESGGGLVQPGGSLRLSCAASGFTFDDYGMNWVRQAPGKGLEWVSNINYNGGYTGYADSVKGRFTISRDNSKNTLYLQMNSLRAEDTAVYYCARGATWHDTHLDYWGQGTLVTVSS VL: DIQMTQSPSSLSASVGDRVTITCRASQSISTYLNWYQQKPGKAPKLVIYAATSRHSGVPSRFSGSGSGTDFTLTISSLQPEDFATYYCQQSYDTPLTFGGGTKVEIK , its optical density was 3.52 OD

// sample 372_E08 (antibody, V domains shown, VH/VL only) VH: EVQLLESGGGLVQPGGSLRLSCAASGFTFSDYSMNWVRQAPGKGLEWVSNINYNGGYTSYADSVKGRFTISRDNSKNTLYLQMNSLRAEDTAVYYCARGATWHDTHLDYWGQGTLVTVSS VL: DIQMTQSPSSLSASVGDRVTITCRASQSIITYLNWYQQKPGKAPKLLIYAATSRASGVPSRFSGSGSGTDFTLTISSLQPEDFATYYCQQSYNLPLTFGGGTKVEIK , its optical density was 3.51 OD

// sample 369_E08 (antibody, V domains shown, VH/VL only) VH: EVQLLESGGGLVQPGGSLRLSCAASGFTFSSYSMNWVRQAPGKGLEWVASINYNSGYTGYADSVKGRFTISRDNSKNTLYLQMNSLRAEDTAVYYCARGATWHDTHLDYWGQGTLVTVSS VL: DIQMTQSPSSLSASVGDRVTITCRASQSILTYVNWYQQKPGKAPKLLIYAATSRASGVPSRFSGSGSGTDFTLTISSLQPEDFATYYCQQSYDSPLTFGGGTKVEIK , its optical density was 1.12 OD

Taken from patent US20210380703A1.
